Every entry's value here was drawn from PubChem BioAssay.

Here the recorded composite z-score is given for each entry.
assay.target: Neurogenic locus notch homolog protein 3 (Homo sapiens) (UniProt Q9UM47)
Sequence (Q9UM47 whole entry, looked up): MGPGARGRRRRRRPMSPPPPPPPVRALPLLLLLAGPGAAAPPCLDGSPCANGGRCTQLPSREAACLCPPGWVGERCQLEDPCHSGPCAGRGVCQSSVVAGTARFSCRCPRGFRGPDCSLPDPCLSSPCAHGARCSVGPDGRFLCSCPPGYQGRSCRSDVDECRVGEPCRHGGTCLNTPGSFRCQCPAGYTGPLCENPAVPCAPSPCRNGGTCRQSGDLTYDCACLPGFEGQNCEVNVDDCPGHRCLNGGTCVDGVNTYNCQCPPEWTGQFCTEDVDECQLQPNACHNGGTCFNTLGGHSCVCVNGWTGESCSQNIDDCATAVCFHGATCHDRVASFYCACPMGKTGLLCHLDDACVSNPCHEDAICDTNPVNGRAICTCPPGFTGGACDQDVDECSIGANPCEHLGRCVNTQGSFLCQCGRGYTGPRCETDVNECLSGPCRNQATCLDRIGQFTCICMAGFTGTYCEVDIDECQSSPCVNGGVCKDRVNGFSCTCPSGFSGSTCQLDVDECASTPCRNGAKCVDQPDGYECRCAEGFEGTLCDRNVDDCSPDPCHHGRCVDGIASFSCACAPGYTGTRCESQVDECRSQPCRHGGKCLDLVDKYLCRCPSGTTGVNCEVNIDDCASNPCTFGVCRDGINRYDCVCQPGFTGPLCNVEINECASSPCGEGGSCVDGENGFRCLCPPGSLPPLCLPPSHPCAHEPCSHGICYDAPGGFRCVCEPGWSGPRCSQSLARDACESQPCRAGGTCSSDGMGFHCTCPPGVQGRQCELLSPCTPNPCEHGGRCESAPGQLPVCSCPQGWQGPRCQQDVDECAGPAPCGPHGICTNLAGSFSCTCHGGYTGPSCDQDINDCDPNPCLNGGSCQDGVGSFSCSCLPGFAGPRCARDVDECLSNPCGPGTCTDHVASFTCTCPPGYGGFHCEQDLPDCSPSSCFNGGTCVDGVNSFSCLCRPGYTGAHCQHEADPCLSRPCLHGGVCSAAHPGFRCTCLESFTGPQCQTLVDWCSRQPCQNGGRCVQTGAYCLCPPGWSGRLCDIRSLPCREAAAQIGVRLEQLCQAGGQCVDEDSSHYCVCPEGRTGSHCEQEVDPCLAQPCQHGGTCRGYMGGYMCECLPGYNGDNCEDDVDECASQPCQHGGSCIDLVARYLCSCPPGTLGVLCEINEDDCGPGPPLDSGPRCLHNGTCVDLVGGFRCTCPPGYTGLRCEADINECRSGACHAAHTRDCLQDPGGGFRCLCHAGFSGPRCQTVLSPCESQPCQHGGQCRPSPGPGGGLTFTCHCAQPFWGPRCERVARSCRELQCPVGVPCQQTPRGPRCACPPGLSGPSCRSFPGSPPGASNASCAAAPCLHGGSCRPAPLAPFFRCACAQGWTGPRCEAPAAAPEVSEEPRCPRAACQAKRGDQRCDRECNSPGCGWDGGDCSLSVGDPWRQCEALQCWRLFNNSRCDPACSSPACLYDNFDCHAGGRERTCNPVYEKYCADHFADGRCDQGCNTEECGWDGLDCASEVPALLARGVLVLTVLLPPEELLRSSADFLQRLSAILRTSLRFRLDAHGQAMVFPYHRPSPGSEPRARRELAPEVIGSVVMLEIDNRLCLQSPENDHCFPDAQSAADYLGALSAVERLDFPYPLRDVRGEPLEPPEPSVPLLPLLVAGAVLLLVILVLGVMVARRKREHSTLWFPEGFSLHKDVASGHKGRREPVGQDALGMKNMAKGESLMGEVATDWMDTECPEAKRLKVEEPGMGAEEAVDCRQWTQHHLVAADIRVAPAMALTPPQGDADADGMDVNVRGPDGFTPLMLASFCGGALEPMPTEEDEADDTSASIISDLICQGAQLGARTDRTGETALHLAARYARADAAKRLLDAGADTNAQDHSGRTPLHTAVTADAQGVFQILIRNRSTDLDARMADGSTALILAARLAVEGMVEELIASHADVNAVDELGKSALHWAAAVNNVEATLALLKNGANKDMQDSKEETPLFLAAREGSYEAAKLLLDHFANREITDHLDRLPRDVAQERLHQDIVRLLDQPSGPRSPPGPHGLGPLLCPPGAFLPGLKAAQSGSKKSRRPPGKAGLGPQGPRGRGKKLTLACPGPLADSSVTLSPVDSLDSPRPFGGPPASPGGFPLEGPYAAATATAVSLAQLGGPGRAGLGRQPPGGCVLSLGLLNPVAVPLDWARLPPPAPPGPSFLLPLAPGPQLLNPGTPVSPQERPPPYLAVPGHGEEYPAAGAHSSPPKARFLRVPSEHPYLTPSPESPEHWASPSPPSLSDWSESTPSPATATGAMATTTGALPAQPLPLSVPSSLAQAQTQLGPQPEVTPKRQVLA
method.summary: NOTCH3 binders on small-molecule microarray, primary screen, biochemical, 635/667 nm fluorescence (AID 1096)
conditions.used: NOTCH3 binding, 635 nm fluorescence, higher = more signal
Give the figure only, with no unit attached.

Solved entries (count: 3):
[
  {
    "structure.string": "CCN1C(=O)[C@H]2[C@H]3[C@H](O)[C@H](O)CC(=NOCC(C)C)[C@H]3CC[C@H]2C1=O",
    "composite z-score": 0.599
  },
  {
    "structure.string": "COC(=O)CC=C[C@@H](C)[C@@H](C=NOC[C@@H](O)COCc1ccco1)NS(=O)(=O)c1ccc(C)cc1",
    "composite z-score": -0.834
  },
  {
    "structure.string": "O=C1[C@H]2[C@H]3[C@H](O)[C@H](O)CC(=NO[C@@H]4O[C@H](CO)[C@@H](O)[C@H](O)[C@H]4O)[C@H]3CC[C@H]2C(=O)N1c1ccc(F)cc1F",
    "composite z-score": 0.365
  }
]

Look up composite z-score: `O=C1[C@H]2[C@H]3[C@H](O)[C@H](O)CC(=NO[C@@H]4O[C@H](CO)[C@@H](O)[C@H](O)[C@H]4O)[C@@H]3CC[C@H]2C(=O)N1c1cccc(Oc2ccccc2)c1`
0.449

Please look up its composite z-score: `CC(C)[C@@H](OCc1ccccc1)[C@H](C)C=NOC[C@@H](O)[C@H]1O[C@@H]2OC(C)(C)O[C@@H]2[C@H]1O`
0.676

// lookup composite z-score for `CO[C@H]1COC(=O)CC=C[C@H](C)[C@H](OC)COC(=O)[C@@H](C)NC(=O)CC=C[C@@H]1C`
0.346

For the molecule `CCOC(=O)CCN1C(=O)[C@H]2[C@H]3[C@H](O)[C@H](O)CC(=NOCC=C(C)CCC=C(C)C)[C@@H]3CC[C@H]2C1=O` , what composite z-score is on record?
0.808

====

assay.target: Epidermal growth factor receptor (Homo sapiens) (UniProt P00533)
Sequence (P00533 whole entry, looked up): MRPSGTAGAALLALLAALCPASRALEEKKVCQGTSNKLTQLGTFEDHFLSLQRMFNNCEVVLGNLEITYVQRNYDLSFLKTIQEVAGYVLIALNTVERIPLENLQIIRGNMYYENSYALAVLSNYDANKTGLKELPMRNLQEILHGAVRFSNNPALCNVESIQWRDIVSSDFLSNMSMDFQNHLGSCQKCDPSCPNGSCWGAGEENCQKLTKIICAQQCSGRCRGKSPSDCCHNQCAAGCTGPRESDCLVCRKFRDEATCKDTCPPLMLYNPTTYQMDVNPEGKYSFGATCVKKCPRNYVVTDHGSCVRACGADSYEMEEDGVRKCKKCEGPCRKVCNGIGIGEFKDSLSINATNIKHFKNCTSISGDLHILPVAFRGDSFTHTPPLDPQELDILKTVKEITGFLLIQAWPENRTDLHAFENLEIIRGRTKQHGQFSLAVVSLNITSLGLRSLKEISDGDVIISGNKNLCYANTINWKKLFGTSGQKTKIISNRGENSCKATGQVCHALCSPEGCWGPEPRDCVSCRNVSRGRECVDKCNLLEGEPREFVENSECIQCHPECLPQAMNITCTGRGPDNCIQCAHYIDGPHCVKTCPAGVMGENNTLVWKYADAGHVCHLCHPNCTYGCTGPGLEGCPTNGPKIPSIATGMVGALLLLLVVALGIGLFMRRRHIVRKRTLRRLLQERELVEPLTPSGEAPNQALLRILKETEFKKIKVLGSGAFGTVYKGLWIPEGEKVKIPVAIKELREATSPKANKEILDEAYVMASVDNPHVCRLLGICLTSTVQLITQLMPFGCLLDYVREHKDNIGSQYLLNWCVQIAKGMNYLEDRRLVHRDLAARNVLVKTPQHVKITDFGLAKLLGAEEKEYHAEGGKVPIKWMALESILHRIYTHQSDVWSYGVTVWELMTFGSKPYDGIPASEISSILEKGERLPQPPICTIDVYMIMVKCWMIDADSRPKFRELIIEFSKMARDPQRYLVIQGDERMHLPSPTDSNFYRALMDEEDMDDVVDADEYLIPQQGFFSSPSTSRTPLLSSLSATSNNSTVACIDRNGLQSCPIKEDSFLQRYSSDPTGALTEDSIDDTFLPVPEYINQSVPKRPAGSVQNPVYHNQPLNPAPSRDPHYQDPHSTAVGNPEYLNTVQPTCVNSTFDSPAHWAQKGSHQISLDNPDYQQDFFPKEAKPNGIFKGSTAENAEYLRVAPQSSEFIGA
method.summary: EGFR binders on small-molecule microarrays, primary screen, biochemical, small-molecule microarray, 635 nm fluorescence (AID 1104);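 also: score merges 667 nm emission intensity with spot signal to noise over triplicate slides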
conditions.used: EGFR binding, higher = more signal
measured.attribute: composite z-score
Returns: the value as a bare number; no unit string appended.

Some entries whose results are on file:
[
  {
    "compound": "C[C@]12CCC3c4ccc(OCC5CO5)cc4CCC3C1CC[C@@H]2O (stereo partly specified)",
    "composite z-score": 0.182
  },
  {
    "compound": "CC=CC1=C(CO)[C@H](O)[C@H]2O[C@H]2[C@@H]1O",
    "composite z-score": 0.148
  },
  {
    "compound": "COc1ccc(OC[C@@H]2CC3[C@@H](c4ccc(Br)cc4)[C@H](C)CC[C@H]3C(=O)O2)cc1 (stereo partly specified)",
    "composite z-score": 0.885
  },
  {
    "compound": "CO[C@H]1C[C@@H]2C[C@H](O)CC(CC(=O)O[C@@H](C=CCC(C)C)C[C@@H]3CC[C@H](C)[C@@H](C1)O3)O2",
    "composite z-score": 0.595
  },
  {
    "compound": "COC(=O)[C@@H]1CC[C@H](C)[C@@H](c2ccc(Br)cc2)N1C[C@@H](O)CN=[N+]=[N-]",
    "composite z-score": 0.532
  },
  {
    "compound": "CCc1cc2c(nc1CC)CCN(CCC(C)=NOC(C)CN1CCCCc3nc(C)c(C)cc31)C2 (stereo unspecified)",
    "composite z-score": 0.81
  },
  {
    "compound": "O=C1C2=CC[C@H]3C(=O)N(C4CCCCC4)C(=O)[C@H]3[C@H]2[C@H](O)[C@@H]2O[C@H]12",
    "composite z-score": 0.0862
  },
  {
    "compound": "COC(=O)CC=C[C@@H](C)[C@@H](C=NOC(C)CN1CCCCc2nc(C)c(C)cc21)NS(=O)(=O)c1ccc(C)cc1 (stereo partly specified)",
    "composite z-score": 1
  }
]

Which composite z-score is listed for `CCN1C(=O)[C@H]2[C@H]3[C@H](O)[C@H](O)CC(=NOCC(C)C)[C@H]3CC[C@H]2C1=O` ?
0.732

GET /values?readout=composite z-score&item= `COC(=O)CC=C[C@@H](C)[C@@H](C=NOC[C@@H](O)COCc1ccco1)NS(=O)(=O)c1ccc(C)cc1`
0.497

Reported composite z-score, compound COC(=O)CC=C[C@@H](C)[C@@H](C=NOC(C)CN1CCCc2nc(C)c(C)cc21)NS(=O)(=O)c1ccc(C)cc1 (stereo partly specified) : ____
0.568

Given the entry COC(=O)[C@H](C)NC(=O)CCC1CC(OC(=O)NCc2ccc3c(c2)OCO3)CC2(CCCC(COC(=O)NCCc3ccc(Cl)cc3)O2)O1 (stereo partly specified) , report its measured composite z-score.
0.351

Dear colleague, I am looking for the recorded composite z-score of the following compound: `CCCNC(=O)OC[C@H]1O[C@H](CCON=C[C@@H](C)[C@H](OCc2ccccc2)C(C)C)C=C[C@@H]1Oc1ccc(OC)cc1`
0.332

Recorded composite z-score for `CO[C@@H]1COC(=O)CC=C[C@H](C)[C@H](OC)COC(=O)[C@@H]2CCCN2C(=O)CC=C[C@H]1C` , please?
1.15

# query: composite z-score of entry `CC(CCC(=O)OC[C@H]1O[C@H](C#Cc2ccccc2)C=C[C@@H]1Oc1ccc(C)cc1)=NO[C@H](C)c1cn([C@@H]2COC[C@H]2O)nn1`
0.238

// lookup composite z-score for CCOC(=O)[C@H](CC(C)C)NC(=O)CCC1CC(OC(=O)NCc2ccc3c(c2)OCO3)CC2(CCCC(COC(=O)NCCc3ccccc3OC)O2)O1 (stereo partly specified)
0.461
